system: SR leukemia; test: NCI-60 one-dose screen, 48 h (100 = growth as untreated, 0 = no growth, -100 = all killed); conditions: 10 µM unless noted
Compounds without any hit were thinned out: in the full panel of roughly 83,000, 20% have a hit.
Measured Parameter: growth (%)

[[record]]
compound = "Fc1ccc(Nc2nc(Nc3ccc(-c4nc5ccccc5[nH]4)cc3)nc(N3CCCC3)n2)cc1"
endpoint_unit = "%"
reported_value = 10.7

[[record]]
compound = "Nc1c(C(=O)Nc2cccc3ccccc23)sc2nc3c(cc12)CCCC3"
endpoint_unit = "%"
reported_value = 9.22

[[record]]
compound = "NC1=NN(c2ccccc2)C(=O)/C1=C/c1ccc(Cl)cc1"
endpoint_unit = "%"
reported_value = 94.2

[[record]]
compound = "COc1c(N)c2c(c([N+](=O)[O-])c1OC)C(=O)OC2"
endpoint_unit = "%"
reported_value = 91.2

[[record]]
compound = "CC1=NN(c2ccc(S(=O)(=O)O)cc2Cl)C(=O)C1"
endpoint_unit = "%"
reported_value = 113

[[record]]
compound = "Cc1csc(Nc2nc(-c3ccc(Cl)cc3)nc(C(Cl)(Cl)Cl)n2)n1"
endpoint_unit = "%"
reported_value = 57

[[record]]
compound = "COc1cc2ncnc(Nc3ccc(Oc4ccnc(C)c4)c(C)c3)c2cc1NC(=O)CC1CCSS1 (stereo not given)"
endpoint_unit = "%"
reported_value = -37.6

[[record]]
compound = "CC(c1ccccc1)N1C(=O)C(C2SC(=S)N(C(C)c3ccccc3)C2=O)SC1=S (stereo not given)"
endpoint_unit = "%"
reported_value = 41.4

[[record]]
compound = "COc1ccc(-c2n/c(=C\\c3c(O)[nH]c4ccc(OC)cc34)cc3c2=Nc2ccccc2-3)cc1"
endpoint_unit = "%"
reported_value = 7.13

[[record]]
compound = "COc1ccccc1-n1cnc(N)c1C(=O)c1cc(OC)c(OC)c(OC)c1"
endpoint_unit = "%"
reported_value = 30.2

